Ref: ChEMBL document CHEMBL1137428

For each entry below, report its pKi value.
Reminder that pKi means the negative base-10 logarithm of the concentration expressed in mol/L.

Request: pKi, test system Sodium-dependent noradrenaline transporter (Homo sapiens, UniProt P23975), entry CN1C2CCC1C1COC(=O)CCCCCCC(=O)Nc3ccc(cc3)C1C2 (stereo not drawn) 5.82

Request: pKi, test system Sodium-dependent noradrenaline transporter (Homo sapiens, UniProt P23975), entry CN1C2CCC1C1COC(=O)CCCCCC(=O)Nc3ccc(cc3)C1C2 (stereo not drawn) 7.70

Request: pKi, test system Sodium-dependent noradrenaline transporter (Homo sapiens, UniProt P23975), entry CN1C2CCC1C1COC(=O)CCCCCCCCC(=O)Nc3ccc(cc3)C1C2 (stereo not drawn) 5.85

Request: pKi, test system Sodium-dependent noradrenaline transporter (Homo sapiens, UniProt P23975), entry CN1C2CCC1C1COC(=O)CCCCCCCCCCC(=O)Nc3ccc(cc3)C1C2 (stereo not drawn) 5.94

Request: pKi, test system Sodium-dependent noradrenaline transporter (Homo sapiens, UniProt P23975), entry CN1C2CCC1C1COC(=O)CCC3(CCC(=O)Nc4ccc(cc4)C1C2)c1ccccc1-c1ccccc13 (stereo not drawn) 6.31

Request: pKi, test system Sodium-dependent noradrenaline transporter (Homo sapiens, UniProt P23975), entry CN1CCCCCCCCCC(=O)OCC2C(CC3CCC2N3C)c2ccc1cc2 (stereo not drawn) 5.97

Request: pKi, test system Sodium-dependent noradrenaline transporter (Homo sapiens, UniProt P23975), entry CN1C2CCC1C1COC(=O)CCC(=O)CCC(=O)Nc3ccc(cc3)C1C2 (stereo not drawn) 6.15

Request: pKi, test system Sodium-dependent noradrenaline transporter (Homo sapiens, UniProt P23975), entry CN1C2CCC1C1COC(=O)CCSCCC(=O)Nc3ccc(cc3)C1C2 (stereo not drawn) 6.30
